This collection of values is drawn from paper PMC11249646.

- measured-on: GST-CIB1 : F-scrambled peptide (Homo sapiens)
- Construct: made in house; host or cells: BL-21 plus RIL cells (E. coli)
- Sequence (Q99828 whole entry): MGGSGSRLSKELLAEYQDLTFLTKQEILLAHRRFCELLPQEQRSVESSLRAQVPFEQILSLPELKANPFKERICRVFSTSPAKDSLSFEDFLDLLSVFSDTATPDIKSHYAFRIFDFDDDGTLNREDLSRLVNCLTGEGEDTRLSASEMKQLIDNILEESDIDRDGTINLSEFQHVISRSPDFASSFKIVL
- assay: FP scrambled-peptide counter screen, 384-well format
- Type: binding
- experimental-context: F-scrambled peptide; read-out: 384-well COUNTERSCREEN IC50
pIC50: −log10 of the molar value.
readout-type: pIC50

- compound: "Cc1cc2c(C(C)C)c(O)c(O)c(C=O)c2c(O)c1-c1c(C)cc2c(C(C)C)c(O)c(O)c(C=O)c2c1O"
  readout-type: "pIC50"
  result-modifier: "="
  val: 4.48
- compound: "N#Cc1cnc(NS(=O)(=O)c2ccc(NC(=O)Cc3ccc(F)c(Cl)c3)cc2)s1.O=C(O)C(F)(F)F"
  readout-type: "pIC50"
  result-modifier: "<"
  val: 3.92
- compound: "Cl.O=C1c2c(O)ccc(O)c2C(=O)c2c(NCCNCCO)ccc(NCCNCCO)c21"
  readout-type: "pIC50"
  result-modifier: "="
  val: 5.24
- compound: "O=C(O)C(F)(F)F.OCc1ccc(-c2ccc3ncnc(NCc4nccs4)c3c2)o1"
  readout-type: "pIC50"
  result-modifier: "="
  val: 4.40
- compound: "CC(C)(C)c1ccc(SC2=NS(=O)(=O)c3ccccc32)cc1"
  readout-type: "pIC50"
  result-modifier: "<"
  val: 3.92
- compound: "Cc1ccc(C)n1-c1cccc(C(=O)O)c1.O=C(O)C(F)(F)F"
  readout-type: "pIC50"
  result-modifier: "<"
  val: 3.92
- compound: "Brc1c(Br)c(Br)c2[nH]nnc2c1Br [NCGC00092352-04, 4,5,6,7-tetrabromobenzotriazole, reference compound]"
  readout-type: "pIC50"
  result-modifier: "<"
  val: 3.92
- compound: "O=C(Cc1ccc(Cl)c(Cl)c1)Nc1ccc(S(=O)(=O)Nc2nnc(-c3ccccn3)s2)cc1.O=C(O)C(F)(F)F"
  readout-type: "pIC50"
  result-modifier: "<"
  val: 3.92
- compound: "O=C(O)C(F)(F)F.O=c1c2ccccc2nc2sc(Nc3cccc(N4CCN5CCCCC5C4)c3)nn12 (centres unmarked)"
  readout-type: "pIC50"
  result-modifier: "="
  val: 4.75
- compound: "Cc1ccc(-c2cc(-c3nn(-c4nc(C(=O)O)cs4)c(CC4CC4)c3Cc3ccc(S(N)(=O)=O)c(F)c3)ccc2F)s1.Cl"
  readout-type: "pIC50"
  result-modifier: "="
  val: 4.30
- compound: "O=C1C(I)=CC(=C(c2cc(I)c([O-])c(I)c2)c2ccccc2C(=O)[O-])C=C1I.[Na+].[Na+]"
  readout-type: "pIC50"
  result-modifier: "="
  val: 4.85
- compound: "N[C@@H](Cc1ccc(Oc2cc(I)c(O)c(I)c2)c(I)c1)C(=O)O"
  readout-type: "pIC50"
  result-modifier: "="
  val: 5.51
- compound: "COC(=O)[C@]12CCC(C)(C)C[C@H]1[C@H]1C(=O)C=C3[C@@]4(C)C=C(C#N)C(=O)C(C)(C)[C@@H]4CC[C@@]3(C)[C@]1(C)CC2"
  readout-type: "pIC50"
  result-modifier: "<"
  val: 3.92
- compound: "COc1ccc(C(=O)Nc2nc(-c3ccccc3)cs2)c(NS(=O)(=O)c2ccc(C)cc2)c1.O=C(O)C(F)(F)F"
  readout-type: "pIC50"
  result-modifier: "="
  val: 4.50
